# System tested: TNKS2 (Homo sapiens, UniProt Q9H2K2)
# Construct: Recombinant GST-TNKS2
# Sequence (Q9H2K2 whole entry): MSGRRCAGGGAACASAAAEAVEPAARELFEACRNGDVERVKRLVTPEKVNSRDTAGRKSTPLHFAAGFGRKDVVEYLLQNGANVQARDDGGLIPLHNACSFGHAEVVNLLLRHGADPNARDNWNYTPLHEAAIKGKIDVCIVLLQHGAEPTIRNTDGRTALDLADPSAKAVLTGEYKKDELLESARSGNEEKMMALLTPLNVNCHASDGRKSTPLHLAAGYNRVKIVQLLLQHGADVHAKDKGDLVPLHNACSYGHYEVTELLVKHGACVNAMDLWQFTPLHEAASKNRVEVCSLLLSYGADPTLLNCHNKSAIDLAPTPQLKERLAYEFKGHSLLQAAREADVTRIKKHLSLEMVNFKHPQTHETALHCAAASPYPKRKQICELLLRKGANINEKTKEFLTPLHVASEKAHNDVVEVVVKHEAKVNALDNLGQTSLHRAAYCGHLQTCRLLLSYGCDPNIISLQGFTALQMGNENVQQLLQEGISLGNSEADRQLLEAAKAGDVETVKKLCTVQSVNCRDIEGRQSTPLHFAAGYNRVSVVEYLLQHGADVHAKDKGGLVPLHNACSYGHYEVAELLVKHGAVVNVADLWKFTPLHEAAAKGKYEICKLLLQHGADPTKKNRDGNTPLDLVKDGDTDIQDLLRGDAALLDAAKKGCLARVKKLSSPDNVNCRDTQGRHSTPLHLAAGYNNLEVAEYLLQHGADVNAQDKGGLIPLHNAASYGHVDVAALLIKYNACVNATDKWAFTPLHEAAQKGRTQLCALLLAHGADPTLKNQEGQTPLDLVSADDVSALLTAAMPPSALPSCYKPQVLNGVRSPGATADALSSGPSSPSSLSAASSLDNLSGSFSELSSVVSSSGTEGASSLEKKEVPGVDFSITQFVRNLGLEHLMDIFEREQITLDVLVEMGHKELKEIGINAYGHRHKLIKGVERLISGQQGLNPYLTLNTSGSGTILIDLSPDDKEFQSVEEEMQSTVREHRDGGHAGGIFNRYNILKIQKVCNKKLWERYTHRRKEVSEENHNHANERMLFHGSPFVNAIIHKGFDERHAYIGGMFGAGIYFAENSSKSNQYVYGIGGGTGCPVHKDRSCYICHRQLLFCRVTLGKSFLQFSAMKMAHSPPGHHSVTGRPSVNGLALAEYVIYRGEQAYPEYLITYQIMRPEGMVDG
# Assay procedure: in vitro auto-ADP-ribosylation assay with recombinant GST-TNKS2, biotinylated substrate, chemiluminescent detection
pIC50: −log10 of the molar value.
Reported metric: pIC50

Qu. Given the entry COc1ccc(-n2c(SCCCN3C(=O)c4cccc5cccc(c45)C3=O)nnc2-c2ccncc2)cc1 [WIKI4] , report its measured pIC50.
Ans. ~7.82
